# EXPERIMENTAL SYSTEM: α4β2Rs (rat α4β2 nAChRs) (Rattus norvegicus, UniProt P09483+P12390)
# Sequence (P09483 31-630): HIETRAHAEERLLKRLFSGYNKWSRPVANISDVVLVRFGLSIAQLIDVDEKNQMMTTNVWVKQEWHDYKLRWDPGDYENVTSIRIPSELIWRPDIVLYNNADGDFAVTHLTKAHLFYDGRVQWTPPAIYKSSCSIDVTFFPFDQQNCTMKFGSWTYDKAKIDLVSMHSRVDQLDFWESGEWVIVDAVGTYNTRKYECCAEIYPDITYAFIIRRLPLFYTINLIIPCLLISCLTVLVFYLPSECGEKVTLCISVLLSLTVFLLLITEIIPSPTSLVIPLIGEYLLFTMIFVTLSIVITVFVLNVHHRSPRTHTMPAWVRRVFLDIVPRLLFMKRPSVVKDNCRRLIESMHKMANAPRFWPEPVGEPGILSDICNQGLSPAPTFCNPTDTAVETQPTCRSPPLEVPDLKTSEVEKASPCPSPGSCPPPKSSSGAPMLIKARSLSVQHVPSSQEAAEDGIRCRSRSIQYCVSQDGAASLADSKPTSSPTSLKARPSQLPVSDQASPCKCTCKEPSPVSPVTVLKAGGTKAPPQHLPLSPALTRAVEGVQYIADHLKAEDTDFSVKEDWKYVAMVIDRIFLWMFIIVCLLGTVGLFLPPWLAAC
# Sequence (P12390 25-500): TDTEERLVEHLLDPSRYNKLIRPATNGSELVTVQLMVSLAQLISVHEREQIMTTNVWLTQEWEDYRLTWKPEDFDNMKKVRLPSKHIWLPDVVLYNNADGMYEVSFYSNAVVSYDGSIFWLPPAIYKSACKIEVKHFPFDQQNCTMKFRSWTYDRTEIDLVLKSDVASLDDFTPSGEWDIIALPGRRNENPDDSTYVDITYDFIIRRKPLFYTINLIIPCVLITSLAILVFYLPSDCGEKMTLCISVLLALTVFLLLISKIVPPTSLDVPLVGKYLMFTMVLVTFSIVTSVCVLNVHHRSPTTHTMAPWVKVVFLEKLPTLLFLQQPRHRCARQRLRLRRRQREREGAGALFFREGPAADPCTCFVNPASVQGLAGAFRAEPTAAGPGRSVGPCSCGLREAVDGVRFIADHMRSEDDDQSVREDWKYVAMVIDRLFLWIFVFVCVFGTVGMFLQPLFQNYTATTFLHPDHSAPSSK
MEASURE: Ki (pM)
// return numeric value only (unit: pM, not printed)

Q: Look up Ki for this compound: Fc1ncccc1OC[C@@H]1C=CCN1 [Nifene]
Ans: 310
